Biological target: T1, human glypican-3 (GPC3) (human, UniProt P51654 25-554)
T1 construct: Endogenous on JHH-7, JHH-5, HepG2 and NCI-H446 tumour cells, or transiently expressed on CHO-S cells from a pTT5 plasmid; also called hGPC3; huGPC3
Assay: flow cytometry on JHH-5 cells (GPC3-mid);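 note: antibody binding to cells at 4 °C for 24 h, detected with anti-human AF647 as geometric mean fluorescence of live cells versus antibody concentration, fitted by specific binding with Hill slope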
MEASURED_METRIC: Bmax (MFI)

binder="H18L6_LC_G34R mAb, v40206 (antibody, human IgG1, kappa, V domains shown, Full-size IgG1/kappa) VH: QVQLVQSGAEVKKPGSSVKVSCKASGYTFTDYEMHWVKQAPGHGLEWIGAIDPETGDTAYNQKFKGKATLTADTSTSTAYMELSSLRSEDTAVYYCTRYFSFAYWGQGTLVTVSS VL: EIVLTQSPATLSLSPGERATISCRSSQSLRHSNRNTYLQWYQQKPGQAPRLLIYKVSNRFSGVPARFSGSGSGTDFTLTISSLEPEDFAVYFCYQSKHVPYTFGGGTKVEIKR" measured_metric="Bmax (MFI)" units_text=MFI recorded_measurement=4910
binder="H18L6_LC_G34A mAb, v40212 (antibody, human IgG1, kappa, V domains shown, M3-H18L6 chains with the stated light chain point mutation, IgG1/kappa) VH: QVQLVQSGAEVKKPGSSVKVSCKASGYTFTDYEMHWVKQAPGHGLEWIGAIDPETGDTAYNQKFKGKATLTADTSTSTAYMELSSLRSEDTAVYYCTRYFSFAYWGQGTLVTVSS VL: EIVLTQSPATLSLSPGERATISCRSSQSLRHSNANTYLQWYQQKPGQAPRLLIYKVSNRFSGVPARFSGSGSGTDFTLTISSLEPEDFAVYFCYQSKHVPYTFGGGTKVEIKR" measured_metric="Bmax (MFI)" units_text=MFI recorded_measurement=3850
binder="H18L6_LC_G34E mAb, v40204 (antibody, human IgG1, kappa, V domains shown, M3-H18L6 chains with the stated light chain point mutation, IgG1/kappa) VH: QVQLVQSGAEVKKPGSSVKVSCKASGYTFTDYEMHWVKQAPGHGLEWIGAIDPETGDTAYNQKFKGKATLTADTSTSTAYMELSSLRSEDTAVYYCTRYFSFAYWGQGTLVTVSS VL: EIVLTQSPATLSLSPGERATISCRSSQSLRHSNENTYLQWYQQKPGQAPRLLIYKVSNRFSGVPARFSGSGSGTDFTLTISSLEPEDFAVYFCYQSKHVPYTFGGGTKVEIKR" measured_metric="Bmax (MFI)" units_text=MFI recorded_measurement=4140
binder="H18L6_LC_G34T mAb, v40209 (antibody, human IgG1, kappa, V domains shown, M3-H18L6 chains with the stated light chain point mutation, IgG1/kappa) VH: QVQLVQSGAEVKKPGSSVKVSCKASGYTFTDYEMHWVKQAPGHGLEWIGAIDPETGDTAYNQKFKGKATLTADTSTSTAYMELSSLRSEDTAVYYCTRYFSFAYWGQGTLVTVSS VL: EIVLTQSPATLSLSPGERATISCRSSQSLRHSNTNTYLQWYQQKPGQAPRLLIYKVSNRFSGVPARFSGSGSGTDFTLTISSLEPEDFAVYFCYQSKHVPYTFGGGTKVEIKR" measured_metric="Bmax (MFI)" units_text=MFI recorded_measurement=4130
binder="H18L6_LC_G34S mAb, v40210 (antibody, human IgG1, kappa, V domains shown, M3-H18L6 chains with the stated light chain point mutation, IgG1/kappa) VH: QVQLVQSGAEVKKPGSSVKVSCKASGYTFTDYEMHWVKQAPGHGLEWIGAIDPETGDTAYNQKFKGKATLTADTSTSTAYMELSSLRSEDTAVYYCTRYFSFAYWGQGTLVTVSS VL: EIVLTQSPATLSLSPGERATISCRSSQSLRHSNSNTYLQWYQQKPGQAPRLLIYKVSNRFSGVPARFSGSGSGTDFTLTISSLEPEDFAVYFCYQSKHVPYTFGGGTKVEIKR" measured_metric="Bmax (MFI)" units_text=MFI recorded_measurement=4140
binder="codrituzumab (v37575) (antibody, human IgG1, kappa, V domains shown, also called GC33; RG-7686) VH: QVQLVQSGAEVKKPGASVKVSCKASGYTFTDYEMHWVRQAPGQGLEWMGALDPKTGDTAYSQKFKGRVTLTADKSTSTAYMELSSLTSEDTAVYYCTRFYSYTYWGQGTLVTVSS VL: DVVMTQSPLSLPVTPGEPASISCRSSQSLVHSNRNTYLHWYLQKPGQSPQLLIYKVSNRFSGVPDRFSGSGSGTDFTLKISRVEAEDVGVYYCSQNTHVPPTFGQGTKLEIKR" measured_metric="Bmax (MFI)" units_text=MFI recorded_measurement=5590
binder="H18L6_LC_G34K mAb, v40207 (antibody, human IgG1, kappa, V domains shown, Full-size IgG1/kappa) VH: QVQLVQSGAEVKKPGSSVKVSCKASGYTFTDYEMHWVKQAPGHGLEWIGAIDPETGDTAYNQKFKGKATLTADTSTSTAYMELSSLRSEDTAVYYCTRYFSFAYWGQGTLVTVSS VL: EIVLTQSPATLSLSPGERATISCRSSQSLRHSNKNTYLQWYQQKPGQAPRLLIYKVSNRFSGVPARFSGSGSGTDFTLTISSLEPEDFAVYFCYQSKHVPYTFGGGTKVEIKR" measured_metric="Bmax (MFI)" units_text=MFI recorded_measurement=4740
